pIC50: −log10 of the molar value.
The following are reported pIC50 results, target or system MMP-13 (Homo sapiens, UniProt P45452).
measurement kind: pIC50

I. CNC(=O)[C@@H](NC(=O)c1ccc(-c2ccc(-c3ccccc3)cn2)o1)C(C)C
II. CNC(=O)[C@@H](NC(=O)c1ccc(-c2ccc(C#N)cc2)o1)C1CCCCC1
# input Could you point out whether the larger pIC50 belongs to I or to II ? Your choice should be expressed through its label.
# output I

a. CNC(=O)[C@@H](NC(=O)c1ccc(-c2ccc(OCc3cc(C)nn3C)cn2)o1)C1CCCCC1
b. CNC(=O)[C@@H](NC(=O)c1ccc(-c2ccc(SC)cc2)o1)C1CCCCC1
# input Of a and b , which carries the smaller reported pIC50 figure? Your choice should be expressed through its label.
# output b

a. CNC(=O)[C@@H](NC(=O)c1ccc(-c2cccc(CNC(=O)c3ccnc(Cl)n3)c2)o1)C(C)C
b. CNC(=O)[C@@H](NC(=O)c1ccc(-c2ccc(OCc3ccccn3)cn2)o1)C1CCCCC1
# input Could you point out whether the larger pIC50 belongs to a or to b ? Your choice should be expressed through its label.
# output a
(a: 8.05, b: 7.68)

====

system: MMP-13 (Homo sapiens)
pIC50: −log10 of the molar value.
measurement kind: pIC50

Entry CNC(=O)[C@@H](NC(=O)c1ccc(-c2cccc(CNC(=O)c3ccc(N(C)C)cc3)c2)o1)C(C)C , pIC50 reported as 6.96

Entry CNC(=O)[C@@H](NC(=O)c1ccc(-c2cccc(CNC(=O)c3cc(C)n[nH]3)c2)o1)C1CCCCC1 , pIC50 reported as 6.91

Entry CNC(=O)[C@@H](NC(=O)c1ccc(-c2cccc(CNC(=O)c3cn4c(C)cccc4n3)c2)o1)C1CCCCC1 , pIC50 reported as 6.96

====

pIC50: −log10 of the molar value.
The following are reported pIC50 results, target or system MMP-13 (Homo sapiens).
measurement kind: pIC50

The molecule CNC(=O)[C@@H](NC(=O)c1ccc(-c2cccc(CNC(=O)c3cc(Br)n(C)n3)c2)o1)C(C)C , tested on MMP-13 (Homo sapiens), showed pIC50 of 7.89

P. CNC(=O)[C@@H](NC(=O)c1ccc(-c2ccc(OCc3c[nH]cn3)cn2)o1)C1CCCCC1
Q. CNC(=O)[C@@H](NC(=O)c1ccc(-c2cccc(CNC(=O)c3cc(C(F)(F)F)n[nH]3)c2)o1)C(C)C
# input Of P and Q , which carries the smaller reported pIC50 figure? Your choice should be expressed through its label.
# output Q
(Q: 6.80, P: 7.72)
